Listed below: Ki values for each entry.
target: histidine tagged recombinant human full-length Bruton Agammaglobulinemia Tyrosine Kinase (Btk) (Homo sapiens, UniProt Q06187); construct: recombinant human full-length Bruton Agammaglobulinemia Tyrosine Kinase (Btk); histidine tag; assay: Btk kinase inhibition assay (fluorescence polarization, KinEASE FP Fluorescein Green); type: biochemical; details: 10 μM ATP, 250 μM substrate, 60 minutes, room temperature; Ki from IC50 by Cheng-Prusoff; read-out: ki50 (nM), Inhibition of Btk
Sequence (Q06187 whole entry): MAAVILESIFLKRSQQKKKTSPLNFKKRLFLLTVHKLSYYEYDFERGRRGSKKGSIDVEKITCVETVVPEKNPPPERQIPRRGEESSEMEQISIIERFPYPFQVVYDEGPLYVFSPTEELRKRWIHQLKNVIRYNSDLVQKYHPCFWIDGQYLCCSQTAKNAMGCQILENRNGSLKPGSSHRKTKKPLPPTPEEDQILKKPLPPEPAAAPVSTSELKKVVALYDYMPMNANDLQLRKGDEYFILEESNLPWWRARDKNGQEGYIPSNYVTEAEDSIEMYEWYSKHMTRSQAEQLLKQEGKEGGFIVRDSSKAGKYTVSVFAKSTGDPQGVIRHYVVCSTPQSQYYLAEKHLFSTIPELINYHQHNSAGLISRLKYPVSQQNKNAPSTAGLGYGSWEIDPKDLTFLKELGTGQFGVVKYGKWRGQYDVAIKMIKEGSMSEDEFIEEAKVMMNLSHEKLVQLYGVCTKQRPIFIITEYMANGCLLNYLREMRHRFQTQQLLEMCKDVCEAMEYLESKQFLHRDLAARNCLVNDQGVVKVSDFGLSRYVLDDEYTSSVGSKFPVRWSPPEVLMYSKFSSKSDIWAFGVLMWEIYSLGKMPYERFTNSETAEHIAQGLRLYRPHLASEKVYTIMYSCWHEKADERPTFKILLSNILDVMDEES
REPORTED_PROPERTY: Ki

[
  {
    "MOLECULE": "CC1OCc2c1c1ncnc(N)c1n2-c1ccc(Oc2ccccc2)nc1 (stereo not drawn) [Compound 88]",
    "REPORTED_PROPERTY": "Ki",
    "RECORDED_VALUE": "> 1000 nM"
  },
  {
    "MOLECULE": "CCN1Cc2c(n(-c3ccc(Oc4ccccc4)cc3)c3c(N)ncnc23)C1 [Compound 14]",
    "REPORTED_PROPERTY": "Ki",
    "RECORDED_VALUE": "> 1000 nM"
  },
  {
    "MOLECULE": "CC1OCc2c1c1ncnc(N)c1n2-c1ccc(Oc2cccc(NC(=O)c3ccccc3)c2)cc1 (stereo not drawn) [Compound 82]",
    "REPORTED_PROPERTY": "Ki",
    "RECORDED_VALUE": "< 100 nM"
  },
  {
    "MOLECULE": "COc1ccc(COc2cccc(Oc3ccc(-n4c5c(c6ncnc(N)c64)CCC5)cc3)c2)cc1 [Compound 129]",
    "REPORTED_PROPERTY": "Ki",
    "RECORDED_VALUE": "< 100 nM"
  },
  {
    "MOLECULE": "CC1OCc2c1c1ncnc(N)c1n2-c1ccc(Oc2cccc(OCC3CCCCC3)c2)cc1 (stereo not drawn) [Compound 56]",
    "REPORTED_PROPERTY": "Ki",
    "RECORDED_VALUE": "< 100 nM"
  },
  {
    "MOLECULE": "COc1cc(F)cc(Oc2ccc(-n3c4c(c5ncnc(N)c53)C(C)OC4)cc2)c1 (stereo not drawn) [Compound 59]",
    "REPORTED_PROPERTY": "Ki",
    "RECORDED_VALUE": "< 1000 nM"
  }
]

###

We begin with a simple list: items and their reported Ki.
biological target: histidine tagged recombinant human full-length Bruton Agammaglobulinemia Tyrosine Kinase (Btk) (Homo sapiens, UniProt Q06187); construct: recombinant human full-length Bruton Agammaglobulinemia Tyrosine Kinase (Btk); histidine tag; assay: Btk kinase inhibition assay (fluorescence polarization, KinEASE FP Fluorescein Green); format: biochemical; conditions: 10 μM ATP, 250 μM substrate, 60 minutes, room temperature; Ki from IC50 by Cheng-Prusoff; read-out: ki50 (nM), Inhibition of Btk

[
  {
    "COMPOUND": "Nc1ncnc2c3c(n(-c4ccc(Oc5ccccc5)cc4)c12)COC3CCCOCc1ccccc1 (stereo not drawn) [Compound 26]",
    "Ki": "> 1000 nM"
  },
  {
    "COMPOUND": "CC1OCc2c1c1ncnc(N)c1n2-c1ccc(Oc2ccccc2C(N)=O)cc1 (stereo not drawn) [Compound 60]",
    "Ki": "> 1000 nM"
  },
  {
    "COMPOUND": "CC1OCc2c1c1ncnc(N)c1n2-c1ccc(Oc2cccc(OCc3ccccc3)c2)cc1 (stereo not drawn) [Compound 43]",
    "Ki": "< 100 nM"
  },
  {
    "COMPOUND": "Cc1nc(COc2cccc(Oc3ccc(-n4c5c(c6ncnc(N)c64)C(C)OC5)cc3)c2)cs1 (stereo not drawn) [Compound 102]",
    "Ki": "< 100 nM"
  },
  {
    "COMPOUND": "Nc1ncnc2c3c(n(-c4ccc(Oc5ccccc5)cc4)c12)CN(C(=O)c1ccccc1)C3 [Compound 18]",
    "Ki": "> 1000 nM"
  },
  {
    "COMPOUND": "Nc1ncnc2c3c(n(-c4ccc(Oc5ccccc5)cc4)c12)CCN(S(=O)(=O)c1ccccc1)C3 [Compound 12]",
    "Ki": "> 1000 nM"
  },
  {
    "COMPOUND": "Nc1ncnc2c3c(n(-c4ccc(Oc5ccccc5)cc4)c12)CCN(C(=O)c1ccccc1)C3 [Compound 16]",
    "Ki": "> 1000 nM"
  },
  {
    "COMPOUND": "CC1OCc2c1c1ncnc(N)c1n2-c1ccc(Oc2cccc(OCc3cccc(C(F)(F)F)c3)c2)cc1 (stereo not drawn) [Compound 105]",
    "Ki": "< 100 nM"
  },
  {
    "COMPOUND": "CC1OCc2c1c1ncnc(N)c1n2-c1ccc(Oc2ccccc2C(F)(F)F)cc1 (stereo not drawn) [Compound 32]",
    "Ki": "< 1000 nM"
  },
  {
    "COMPOUND": "Nc1ncnc2c3c(n(-c4ccc(Oc5ccccc5)cc4)c12)CNC3 [Compound 7]",
    "Ki": "> 1000 nM"
  },
  {
    "COMPOUND": "CC1OCc2c1c1ncnc(N)c1n2-c1ccc(Oc2cccc(OCc3ccc(F)cc3)c2)cc1 (stereo not drawn) [Compound 49]",
    "Ki": "< 100 nM"
  },
  {
    "COMPOUND": "CCCCOc1cccc(Oc2ccc(-n3c4c(c5ncnc(N)c53)C(C)OC4)cc2)c1 (stereo not drawn) [Compound 136]",
    "Ki": "< 100 nM"
  },
  {
    "COMPOUND": "CC1OCc2c1c1ncnc(N)c1n2-c1ccc(Oc2cccc(OCc3ccccc3C#N)c2)cc1 (stereo not drawn) [Compound 96]",
    "Ki": "< 100 nM"
  },
  {
    "COMPOUND": "CCCC(=O)Nc1cccc(Oc2ccc(-n3c4c(c5ncnc(N)c53)C(C)OC4)cc2)c1 (stereo not drawn) [Compound 126]",
    "Ki": "< 1000 nM"
  },
  {
    "COMPOUND": "Nc1ncnc2c3c(n(-c4ccc(Oc5ccc(F)cc5)cc4)c12)CCC3 [Compound 2]",
    "Ki": "> 1000 nM"
  },
  {
    "COMPOUND": "CC1OCc2c1c1ncnc(N)c1n2-c1ccc(Oc2ccncc2)cc1 (stereo not drawn) [Compound 74]",
    "Ki": "> 1000 nM"
  },
  {
    "COMPOUND": "CC1OCc2c1c1ncnc(N)c1n2-c1ccc(Oc2cccc(OCc3ccccc3Cl)c2)cc1 (stereo not drawn) [Compound 107]",
    "Ki": "< 100 nM"
  },
  {
    "COMPOUND": "CC(=O)Nc1cccc(COc2cccc(Oc3ccc(-n4c5c(c6ncnc(N)c64)CCC5)cc3)c2)c1 [Compound 130]",
    "Ki": "< 100 nM"
  },
  {
    "COMPOUND": "COc1cccc(C(=O)Nc2cccc(Oc3ccc(-n4c5c(c6ncnc(N)c64)C(C)OC5)cc3)c2)c1 (stereo not drawn) [Compound 118]",
    "Ki": "< 100 nM"
  },
  {
    "COMPOUND": "Nc1ncnc2c3c(n(-c4ccc(Oc5cccc(OCc6ccc(Cl)cc6)c5)cc4)c12)CCC3 [Compound 128]",
    "Ki": "< 100 nM"
  },
  {
    "COMPOUND": "Nc1ncnc2c3c(n(-c4ccc(Oc5ccccc5)cc4)c12)CSC3 [Compound 63]",
    "Ki": "> 1000 nM"
  },
  {
    "COMPOUND": "Nc1ncnc2c3c(n(-c4ccc(Oc5cccc(O)c5)cc4)c12)CCC3 [Compound 61]",
    "Ki": "> 1000 nM"
  },
  {
    "COMPOUND": "CCOc1cccc(Oc2ccc(-n3c4c(c5ncnc(N)c53)C(C)OC4)cc2)c1 (stereo not drawn) [Compound 41]",
    "Ki": "< 100 nM"
  },
  {
    "COMPOUND": "CC1OCc2c1c1ncnc(N)c1n2-c1ccc(Oc2ccccc2)c(Cl)c1 (stereo not drawn) [Compound 39]",
    "Ki": "< 1000 nM"
  },
  {
    "COMPOUND": "Nc1ncnc2c3c(n(-c4ccc(Oc5ccccc5)cc4)c12)COC3CCCO (stereo not drawn) [Compound 27]",
    "Ki": "< 1000 nM"
  },
  {
    "COMPOUND": "Nc1ncnc2c3c(n(-c4ccc(Oc5ccccc5)cc4)c12)COC3CCCOc1ccccc1 (stereo not drawn) [Compound 36]",
    "Ki": "> 1000 nM"
  },
  {
    "COMPOUND": "COc1cccc(COc2cccc(Oc3ccc(-n4c5c(c6ncnc(N)c64)CCC5)cc3)c2)c1 [Compound 123]",
    "Ki": "< 100 nM"
  }
]
